Test: pKa value of the compound
Assay type: physicochemical
measured-property: pKa
No unit in the answer, please; the number alone is enough.

# compound, pKa
measured = [
    ("O=S(=O)(c1ccc(F)cc1)C1(F)CCN(CCc2ccc(F)cc2F)CC1", 6.3),
    ("N#Cc1ccc(S(=O)(=O)C2(F)CCN(CCc3ccc(F)cc3F)CC2)cc1", 6.4),
    ("O=S(=O)(c1ccccc1)C1CCN(CCc2ccc(F)cc2F)CC1", 7.3),
]

// query What value of pKa has been recorded for this entry: O=C(CN1CCC(S(=O)(=O)c2ccccc2)CC1)c1ccc(F)cc1F
// result 6.3

// query What value of pKa has been recorded for this entry: O=S(=O)(c1ccc(F)cc1)C1CCN(CCc2ccc(F)cc2F)CC1
// result 7.2

* * *

5-hydroxytryptamine receptor 2A (Rattus norvegicus, UniProt P14842) Ki data
Sequence (P14842 whole entry): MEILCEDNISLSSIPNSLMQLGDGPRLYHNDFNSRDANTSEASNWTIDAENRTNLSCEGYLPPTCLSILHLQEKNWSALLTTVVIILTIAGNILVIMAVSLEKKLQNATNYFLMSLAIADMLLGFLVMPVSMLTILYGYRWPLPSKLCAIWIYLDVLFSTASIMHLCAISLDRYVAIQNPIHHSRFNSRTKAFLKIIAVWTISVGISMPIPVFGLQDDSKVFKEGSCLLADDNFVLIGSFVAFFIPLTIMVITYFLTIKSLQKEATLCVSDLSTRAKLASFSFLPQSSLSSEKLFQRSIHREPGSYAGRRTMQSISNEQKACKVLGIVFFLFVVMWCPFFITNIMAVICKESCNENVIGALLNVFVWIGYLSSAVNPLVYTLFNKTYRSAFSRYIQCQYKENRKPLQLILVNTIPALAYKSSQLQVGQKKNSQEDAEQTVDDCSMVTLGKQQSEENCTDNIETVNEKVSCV
Report the figure in nM without appending any unit label.

Example compounds with recorded Ki:
# compound, tested-system, measured-property, value-observed
records = [
    ("N#Cc1ccc(S(=O)(=O)C2(F)CCN(CCc3ccc(F)cc3F)CC2)cc1", "5-hydroxytryptamine receptor 2A (Rattus norvegicus, UniProt P14842)", "Ki", 1.33),
    ("O=C(CN1CCC(S(=O)(=O)c2ccccc2)CC1)c1ccc(F)cc1F", "5-hydroxytryptamine receptor 2A (Rattus norvegicus, UniProt P14842)", "Ki", 0.51),
]

Now look at this one.
// query Form: Entry = O=S(=O)(c1ccc(F)cc1)C1(F)CCN(CCc2ccc(F)cc2F)CC1 | System = 5-hydroxytryptamine receptor 2A (Rattus norvegicus, UniProt P14842) | Ki = ____
// result 0.63

* * *

Target: UniProt:Q12809
Sequence (Q12809 whole entry): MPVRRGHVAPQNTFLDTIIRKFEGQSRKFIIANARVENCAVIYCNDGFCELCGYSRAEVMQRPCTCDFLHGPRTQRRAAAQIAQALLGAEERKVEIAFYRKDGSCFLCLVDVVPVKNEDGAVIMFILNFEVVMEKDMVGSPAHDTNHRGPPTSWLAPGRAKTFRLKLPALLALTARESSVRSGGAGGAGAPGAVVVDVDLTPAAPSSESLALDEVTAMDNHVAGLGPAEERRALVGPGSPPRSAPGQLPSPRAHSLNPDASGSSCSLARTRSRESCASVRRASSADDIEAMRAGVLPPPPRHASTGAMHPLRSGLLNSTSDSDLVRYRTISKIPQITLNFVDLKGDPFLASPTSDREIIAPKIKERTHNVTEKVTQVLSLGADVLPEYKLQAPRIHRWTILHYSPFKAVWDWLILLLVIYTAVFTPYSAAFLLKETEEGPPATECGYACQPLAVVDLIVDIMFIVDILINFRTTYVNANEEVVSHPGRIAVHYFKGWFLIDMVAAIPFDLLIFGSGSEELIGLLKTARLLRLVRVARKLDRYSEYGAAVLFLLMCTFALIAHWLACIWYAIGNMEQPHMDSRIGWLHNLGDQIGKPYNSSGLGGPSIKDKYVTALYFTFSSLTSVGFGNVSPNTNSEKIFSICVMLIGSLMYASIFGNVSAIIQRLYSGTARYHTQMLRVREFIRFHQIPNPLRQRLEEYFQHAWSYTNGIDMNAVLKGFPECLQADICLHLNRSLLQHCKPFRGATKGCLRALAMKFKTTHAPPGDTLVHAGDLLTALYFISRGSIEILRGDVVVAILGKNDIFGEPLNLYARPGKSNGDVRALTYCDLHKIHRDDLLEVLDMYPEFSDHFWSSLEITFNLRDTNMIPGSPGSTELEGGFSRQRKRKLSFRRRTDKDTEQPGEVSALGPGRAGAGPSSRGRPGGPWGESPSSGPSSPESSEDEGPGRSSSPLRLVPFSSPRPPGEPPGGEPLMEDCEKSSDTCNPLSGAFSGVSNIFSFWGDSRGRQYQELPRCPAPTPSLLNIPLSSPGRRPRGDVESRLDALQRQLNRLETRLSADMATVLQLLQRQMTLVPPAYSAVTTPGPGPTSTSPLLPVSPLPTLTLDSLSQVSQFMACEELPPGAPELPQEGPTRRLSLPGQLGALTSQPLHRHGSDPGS
Test: Binding affinity against human IKr channel
measured-property: Ki

# compound, Ki
rows = [
    ("O=S(=O)(c1ccccc1)C1(F)CCN(CCc2ccc(F)cc2F)CC1", "2.45 µM"),
    ("N#Cc1ccc(S(=O)(=O)C2(F)CCN(CCc3ccc(F)cc3F)CC2)cc1", "2.7 µM"),
    ("O=S(=O)(c1ccc(-n2cccn2)cc1)C1(F)CCN(CCc2ccc(F)cc2F)CC1", "> 9 µM"),
    ("O=C(CN1CCC(S(=O)(=O)c2ccccc2)CC1)c1ccc(F)cc1F", "6.8 µM"),
    ("O=S(=O)(c1ccc(-n2ccnn2)cc1)C1(F)CCN(CCc2ccc(F)cc2F)CC1", "> 9 µM"),
]

// query What value of Ki has been recorded for this entry: O=S(=O)(c1ccccc1F)C1(F)CCN(CCc2ccc(F)cc2F)CC1
// result 0.398 µM

// query What value of Ki has been recorded for this entry: O=S(=O)(c1ccc(F)cc1)C1(F)CCN(CCc2ccc(F)cc2F)CC1
// result 5.56 µM

* * *

Target: D(2) dopamine receptor (Homo sapiens)
Sequence (P14416 whole entry): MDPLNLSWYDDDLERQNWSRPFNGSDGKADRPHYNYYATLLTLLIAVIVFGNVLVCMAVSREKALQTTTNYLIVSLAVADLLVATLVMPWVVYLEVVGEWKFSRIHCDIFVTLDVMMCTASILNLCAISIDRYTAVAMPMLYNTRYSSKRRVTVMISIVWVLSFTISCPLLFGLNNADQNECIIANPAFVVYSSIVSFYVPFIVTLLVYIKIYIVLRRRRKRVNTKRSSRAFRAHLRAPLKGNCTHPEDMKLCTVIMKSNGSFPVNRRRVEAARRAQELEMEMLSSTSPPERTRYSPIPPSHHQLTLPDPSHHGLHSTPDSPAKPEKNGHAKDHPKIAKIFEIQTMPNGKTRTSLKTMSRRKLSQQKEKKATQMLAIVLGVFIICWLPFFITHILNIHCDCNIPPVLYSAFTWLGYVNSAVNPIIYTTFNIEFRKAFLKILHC
Test: Binding affinity against human Dopamine receptor D2
pKi: −log10 of the molar value.
Here the recorded pKi is given for each entry.

Example compounds with recorded pKi:
# compound, pKi
records = [
    ("O=S(=O)(c1ccc(N2CCC2)cc1)C1(F)CCN(CCc2ccc(F)cc2F)CC1", "< 5.70"),
    ("O=S(=O)(c1ccc(-n2ccnn2)cc1)C1(F)CCN(CCc2ccc(F)cc2F)CC1", "< 5.70"),
]

// query What value of pKi has been recorded for this entry: O=S(=O)(c1ccc(-n2cccn2)cc1)C1(F)CCN(CCc2ccc(F)cc2F)CC1
// result < 5.70

// query What value of pKi has been recorded for this entry: O=C(CN1CCC(S(=O)(=O)c2ccccc2)CC1)c1ccc(F)cc1F
// result < 5.82

// query What value of pKi has been recorded for this entry: O=S(=O)(c1ccc(Cl)cc1)C1(F)CCN(CCc2ccc(F)cc2F)CC1
// result < 6.00

// query What value of pKi has been recorded for this entry: O=S(=O)(c1ccccc1)C1(F)CCN(CCc2ccc(F)cc2F)CC1
// result < 6.00
